Assay: toxicity test, LD50
Conditions: mouse, in vivo, iv; administered intravenously; read-out: LD50 (mg/kg) in Mice
LD50: recorded values
Field format: number, assumed mg/kg, no unit text.

[
  {
    "smiles.repr": "CCCCCCCCCCCC(=O)Nc1cccc(C(=O)N[C@@H](Cc2c[nH]c3ccccc23)C(=O)N[C@H](CC(N)=O)C(=O)N[C@@H](CC(=O)O)C(=O)N[C@@H]2C(=O)NCC(=O)N[C@@H](CCCN)C(=O)N[C@@H](CC(=O)O)C(=O)N[C@H](C)C(=O)N[C@@H](CC(=O)O)C(=O)NCC(=O)N[C@H](CO)C(=O)N[C@@H]([C@H](C)CC(=O)O)C(=O)N[C@@H](CC(=O)c3ccccc3N)C(=O)O[C@@H]2C)c1",
    "LD50 [mg/kg]": 277
  },
  {
    "smiles.repr": "CCCCCCCCCC(=O)N[C@@H](Cc1ccccc1)C(=O)N[C@@H](Cc1c[nH]c2ccccc12)C(=O)N[C@H](CC(N)=O)C(=O)N[C@@H](CC(=O)O)C(=O)N[C@@H]1C(=O)NCC(=O)N[C@@H](CCCN)C(=O)N[C@@H](CC(=O)O)C(=O)N[C@H](C)C(=O)N[C@@H](CC(=O)O)C(=O)NCC(=O)N[C@H](CO)C(=O)N[C@@H]([C@H](C)CC(=O)O)C(=O)N[C@@H](CC(=O)c2ccccc2N)C(=O)O[C@@H]1C",
    "LD50 [mg/kg]": 600
  }
]

Per the records, this compound ( CCCCCCCCCCC(=O)N[C@@H](Cc1ccccc1)C(=O)N[C@@H](Cc1c[nH]c2ccccc12)C(=O)N[C@H](CC(N)=O)C(=O)N[C@@H](CC(=O)O)C(=O)N[C@@H]1C(=O)NCC(=O)N[C@@H](CCCN)C(=O)N[C@@H](CC(=O)O)C(=O)N[C@H](C)C(=O)N[C@@H](CC(=O)O)C(=O)NCC(=O)N[C@H](CO)C(=O)N[C@@H]([C@H](C)CC(=O)O)C(=O)N[C@@H](CC(=O)c2ccccc2N)C(=O)O[C@@H]1C ) has LD50 equal to 400

---

Test system: Staphylococcus aureus V41
Assay: agar-dilution MIC
Format: cell-based
Conditions: Staphylococcus aureus V41, penicillin-resistant strain; two values = two experiments; 2 median of five, 19 median of three
metric.name: MIC (µg/mL)
Field format: number, assumed µg/mL, no unit text.

Per the records, this compound ( CCCCCCCCCCCC(=O)Nc1cc(Cl)cc(C(=O)N[C@@H](Cc2c[nH]c3ccccc23)C(=O)N[C@H](CC(N)=O)C(=O)N[C@@H](CC(=O)O)C(=O)N[C@@H]2C(=O)NCC(=O)N[C@@H](CCCN)C(=O)N[C@@H](CC(=O)O)C(=O)N[C@H](C)C(=O)N[C@@H](CC(=O)O)C(=O)NCC(=O)N[C@H](CO)C(=O)N[C@@H]([C@H](C)CC(=O)O)C(=O)N[C@@H](CC(=O)c3ccccc3N)C(=O)O[C@@H]2C)c1Cl [Compound 7] ) has MIC equal to 1

Per the records, this compound ( CCCCCCCCCCCC(=O)N[C@@H](Cc1ccccc1)C(=O)N[C@@H](Cc1c[nH]c2ccccc12)C(=O)N[C@H](CC(N)=O)C(=O)N[C@@H](CC(=O)O)C(=O)N[C@@H]1C(=O)NCC(=O)N[C@@H](CCCN)C(=O)N[C@@H](CC(=O)O)C(=O)N[C@H](C)C(=O)N[C@@H](CC(=O)O)C(=O)NCC(=O)N[C@H](CO)C(=O)N[C@@H]([C@H](C)CC(=O)O)C(=O)N[C@@H](CC(=O)c2ccccc2N)C(=O)O[C@@H]1C [Compound 8] ) has MIC equal to 0.25

Per the records, this compound ( CCCCCCCCCCCCCC(=O)N[C@@H](Cc1ccccc1)C(=O)N[C@@H](Cc1c[nH]c2ccccc12)C(=O)N[C@H](CC(N)=O)C(=O)N[C@@H](CC(=O)O)C(=O)N[C@@H]1C(=O)NCC(=O)N[C@@H](CCCN)C(=O)N[C@@H](CC(=O)O)C(=O)N[C@H](C)C(=O)N[C@@H](CC(=O)O)C(=O)NCC(=O)N[C@H](CO)C(=O)N[C@@H]([C@H](C)CC(=O)O)C(=O)N[C@@H](CC(=O)c2ccccc2N)C(=O)O[C@@H]1C [Compound 22] ) has MIC equal to 1

Per the records, this compound ( CCCCCCCCCCCC(=O)Nc1cccc(C(=O)N[C@@H](Cc2c[nH]c3ccccc23)C(=O)N[C@H](CC(N)=O)C(=O)N[C@@H](CC(=O)O)C(=O)N[C@@H]2C(=O)NCC(=O)N[C@@H](CCCN)C(=O)N[C@@H](CC(=O)O)C(=O)N[C@H](C)C(=O)N[C@@H](CC(=O)O)C(=O)NCC(=O)N[C@H](CO)C(=O)N[C@@H]([C@H](C)CC(=O)O)C(=O)N[C@@H](CC(=O)c3ccccc3N)C(=O)O[C@@H]2C)c1 [Compound 5] ) has MIC equal to 0.5

Per the records, this compound ( CCCCCCCCCCC(=O)N[C@@H](Cc1ccccc1)C(=O)N[C@@H](Cc1c[nH]c2ccccc12)C(=O)N[C@H](CC(N)=O)C(=O)N[C@@H](CC(=O)O)C(=O)N[C@@H]1C(=O)NCC(=O)N[C@@H](CCCN)C(=O)N[C@@H](CC(=O)O)C(=O)N[C@H](C)C(=O)N[C@@H](CC(=O)O)C(=O)NCC(=O)N[C@H](CO)C(=O)N[C@@H]([C@H](C)CC(=O)O)C(=O)N[C@@H](CC(=O)c2ccccc2N)C(=O)O[C@@H]1C [Compound 20] ) has MIC equal to 0.5

---

Test system: Staphylococcus aureus V41
Test: agar-dilution MIC
Type: cell-based
Details: Staphylococcus aureus V41, penicillin-resistant strain; two values = two experiments; 2 median of five, 19 median of three
metric.name: MIC

[
  {
    "smiles.repr": "CCCCCCCCCCCC(=O)N[C@@H](Cc1c[nH]c2ccccc12)C(=O)N[C@@H](Cc1c[nH]c2ccccc12)C(=O)N[C@H](CC(N)=O)C(=O)N[C@@H](CC(=O)O)C(=O)N[C@@H]1C(=O)NCC(=O)N[C@@H](CCCN)C(=O)N[C@@H](CC(=O)O)C(=O)N[C@H](C)C(=O)N[C@@H](CC(=O)O)C(=O)NCC(=O)N[C@H](CO)C(=O)N[C@@H]([C@H](C)CC(=O)O)C(=O)N[C@@H](CC(=O)c2ccccc2N)C(=O)O[C@@H]1C",
    "observed.value": "2 µg/mL"
  }
]

Per the records, this molecule ( CCCCCCCCCCCC(=O)N[C@H](Cc1ccccc1)C(=O)N[C@@H](Cc1c[nH]c2ccccc12)C(=O)N[C@H](CC(N)=O)C(=O)N[C@@H](CC(=O)O)C(=O)N[C@@H]1C(=O)NCC(=O)N[C@@H](CCCN)C(=O)N[C@@H](CC(=O)O)C(=O)N[C@H](C)C(=O)N[C@@H](CC(=O)O)C(=O)NCC(=O)N[C@H](CO)C(=O)N[C@@H]([C@H](C)CC(=O)O)C(=O)N[C@@H](CC(=O)c2ccccc2N)C(=O)O[C@@H]1C ) has MIC equal to 0.5 µg/mL

Per the records, this molecule ( CCCCCCCC(=O)N[C@@H](Cc1ccccc1)C(=O)N[C@@H](Cc1c[nH]c2ccccc12)C(=O)N[C@H](CC(N)=O)C(=O)N[C@@H](CC(=O)O)C(=O)N[C@@H]1C(=O)NCC(=O)N[C@@H](CCCN)C(=O)N[C@@H](CC(=O)O)C(=O)N[C@H](C)C(=O)N[C@@H](CC(=O)O)C(=O)NCC(=O)N[C@H](CO)C(=O)N[C@@H]([C@H](C)CC(=O)O)C(=O)N[C@@H](CC(=O)c2ccccc2N)C(=O)O[C@@H]1C ) has MIC equal to 8 µg/mL

Per the records, this molecule ( CCCCCCC(=O)NCCCCCCCCCCC(=O)N[C@@H](Cc1c[nH]c2ccccc12)C(=O)N[C@H](CC(N)=O)C(=O)N[C@@H](CC(=O)O)C(=O)N[C@@H]1C(=O)NCC(=O)N[C@@H](CCCN)C(=O)N[C@@H](CC(=O)O)C(=O)N[C@H](C)C(=O)N[C@@H](CC(=O)O)C(=O)NCC(=O)N[C@H](CO)C(=O)N[C@@H]([C@H](C)CC(=O)O)C(=O)N[C@@H](CC(=O)c2ccccc2N)C(=O)O[C@@H]1C ) has MIC equal to 4 µg/mL

Per the records, this molecule ( CCCCCCCCCCC(=O)N[C@@H](Cc1ccccc1)C(=O)NCCC[C@@H]1NC(=O)CNC(=O)[C@@H](NC(=O)[C@H](CC(=O)O)NC(=O)[C@@H](CC(N)=O)NC(=O)[C@@H](N)Cc2c[nH]c3ccccc23)[C@@H](C)OC(=O)[C@H](CC(=O)c2ccccc2N)NC(=O)[C@H]([C@H](C)CC(=O)O)NC(=O)[C@@H](CO)NC(=O)CNC(=O)[C@H](CC(=O)O)NC(=O)[C@@H](C)NC(=O)[C@H](CC(=O)O)NC1=O ) has MIC equal to > 128 µg/mL
